Values compiled from patent US12246076B2.

Assign tissue uptake at 1 h to each entry below.
- assay details: in vivo
- settings: male, NRG, mouse, iv, total radioactivity, Biodistribution Kidneys Mean
Numbered stars: 1 amine (or outer) side, 2 acyl side, 3 side chain; on linkers, the order of the positions; unused ones are H or OH. Square brackets hold non-standard residues; d marks the D form. Peptide text beside a SMILES is read from it. * marks the point of attachment. DOTA = O=C(O)CN1CCN(CC(=O)O)CCN(CC(=O)*)CCN(CC(=O)O)CC1; Leuψ(CH2N)ThzNH2 = CC(C)C[C@@H](CN1CSC[C@H]1C(N)=O)N*; X1 = O=C(CN1CCC(N[*:1])CC1)[*:2]; Tle = CC(C)(C)[C@H](N)C(=O)O
Kindly answer with a numeric value in %ID/g, unit omitted.

Please look up its tissue uptake at 1 h: CC(C)C[C@H](NC(=O)[C@H](Cc1c[nH]cn1)N(C)C(=O)CNC(=O)[C@@H](NC(=O)[C@H](C)NC(=O)[C@H](Cc1c[nH]c2ccccc12)NC(=O)[C@H](CCC(N)=O)NC(=O)[C@@H](Cc1ccccc1)NC(=O)CN1CCC(NC(=O)CN2CCN(CC(=O)O)CCN(CC(=O)O)CCN(CC(=O)O)CC2)CC1)C(C)C)C(=O)N1CSC[C@H]1C(N)=O [^68Ga-LW01107, metal not drawn] 1.88

Please look up its tissue uptake at 1 h: CC(C)C[C@H](NC(=O)[C@H](Cc1c[nH]cn1)NC(=O)CNC(=O)[C@@H](NC(=O)[C@H](C)NC(=O)[C@H](Cc1c[nH]c2ccccc12)NC(=O)[C@H](CCC(N)=O)NC(=O)[C@@H](Cc1ccccc1)NC(=O)CN1CCC(NC(=O)CN2CCN(CC(=O)O)CCN(CC(=O)O)CCN(CC(=O)O)CC2)CC1)C(C)(C)C)C(=O)N1CSC[C@H]1C(N)=O [^68Ga-LW01108, metal not drawn] 2.47

Please look up its tissue uptake at 1 h: CC(C)C[C@@H](CN1CSC[C@H]1C(N)=O)NC(=O)[C@H](Cc1c[nH]cn1)NC(=O)CNC(=O)[C@@H](NC(=O)[C@H](C)NC(=O)[C@H](Cc1c[nH]c2ccccc12)NC(=O)[C@H](CCC(N)=O)NC(=O)[C@@H](Cc1ccccc1)NC(=O)CN1CCC(NC(=O)CN2CCN(CC(=O)O)CCN(CC(=O)O)CCN(CC(=O)O)CC2)CC1)C(C)(C)C [^68Ga-LW01158, metal not drawn] ({DOTA}-[X1][dF]QWA[Tle]GH-{Leuψ(CH2N)ThzNH2}) 2.98

Please look up its tissue uptake at 1 h: CC(C)C[C@H](NC(=O)[C@H](Cc1cnc[nH]1)N(C)C(=O)CNC(=O)[C@@H](NC(=O)[C@H](C)NC(=O)[C@H](Cc1c[nH]c2ccccc12)NC(=O)[C@H](CCC(N)=O)NC(=O)[C@@H](Cc1ccccc1)NC(=O)CN1CCC(NC(=O)CN2CCN(CC(=O)O)CCN(CC(=O)O)CCN(CC(=O)O)CC2)CC1)C(C)(C)C)C(=O)N1CSC[C@H]1C(N)=O [^68Ga-LW01110, metal not drawn] 3.26
